Read-out: CFLAR gene, CFLAR (gene 8837)
Experiment: LTEA_HepaRG_CFLAR: Life Technologies and Expression Analysis (LTEA) Assay for CFLAR gene using HepaRG (AID 2283455)
Conditions: mRNA level, 48 h; actives raise or lower the signal
Active and inactive are the calls of the source. How the source made its calls: active means hit-call score of the fitted dose curve at least 0.9, where 1 is the maximum; inactive means score below 0.9.
Outcomes: 1 = active, 0 = inactive

Molecule | Label
CC1(C)CC(N=C=O)CC(C)(CN=C=O)C1 (stereo not given) | 0
CCCCCCOCCO | 0
CCCCCC(=O)O | 0
CC(C)c1ccc(C(=O)N=C(N)N)cc1S(C)(=O)=O | 1
CCCCN(CCCC)CCCC | 0
O=C(N[C@@H](Cc1ccccc1)[C@@H](O)C(=O)N1C[C@@H](O)[C@@H](O)C1)c1cc2cc(Cl)ccc2[nH]1 | 0
Cc1nc(C)nc(N2C[C@@H](C)N(c3ccnc([C@@H](C)O)n3)[C@@H](C)C2)n1 | 0
NCCO | 0
Cc1ccc(Cl)cc1 | 0
Cc1cc(=O)[nH]c(=S)[nH]1 | 0
C[Si]1(C)O[Si](C)(C)O[Si](C)(C)O[Si](C)(C)O1 | 0
CC1(C)NC(=O)NC1=O | 0
O=[N+]([O-])C(CO)(CO)CO | 0
COc1cc(-c2nc(NC(=O)c3cc4cc(C)cc(C)c4n3CC(=O)O)sc2CCC2CCCCC2)c(OC)cc1Cl | 1
CCOc1ccc2c(c1)C(C)=CC(C)(C)N2 | 0

====

Test: ATG_CMV_CIS: Attagene CIS-FACTORIAL HepG2 Assay for human CMV (Internal Marker) (AID 2282928);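 further: endpoint acts as a background internal control marker rather than a target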
Conditions: HepG2 CMV promoter reporter, transcription factor profiling; actives raise or lower the signal
Active and inactive are the calls of the source. How the source made its calls: active means hit-call score of the fitted dose curve at least 0.9, where 1 is the maximum; inactive means score below 0.9.
Outcomes: 1.0 for active, 0.0 for inactive

Compound | Label
CC1(C)CC(N=C=O)CC(C)(CN=C=O)C1 (configuration not stated) | 0.0
COc1ccc(C)cc1N | 0.0
COc1cccc2c1C(=O)c1c(O)c3c(c(O)c1C2=O)C[C@@](O)(C(=O)CO)C[C@@H]3O[C@H]1C[C@H](N)[C@H](O)[C@H](C)O1 | 1.0
O=[N+]([O-])C(CO)(CO)CO | 0.0
COc1ccc2c(c1)c(CC(=O)O)c(C)n2C(=O)c1ccc(Cl)cc1 | 0.0
CCCCCCCCCCCCCCCCCC(=O)O | 0.0
CC1(C)NC(=O)NC1=O | 0.0
Cc1cccc(Nc2cc(Cl)nc(SCC(=O)O)n2)c1C | 0.0
Nc1ccc2c(c1)C(=O)c1ccccc1C2=O | 0.0
COC(=O)c1ccc(O)cc1 | 0.0
CCCCCCCC=O | 0.0
CCCCCCOCCO | 0.0
COc1cc(C=O)ccc1O | 0.0
O=C(N[C@@H](Cc1ccccc1)[C@@H](O)C(=O)N1C[C@@H](O)[C@@H](O)C1)c1cc2cc(Cl)ccc2[nH]1 | 0.0
O=c1c(O)c(-c2ccc(O)c(O)c2)oc2cc(O)cc(O)c12 | 1.0
C1CCC(SSC2CCCCC2)CC1 | 1.0
Cc1ccc(Cl)cc1 | 0.0

====

Read-out: Vascular cell adhesion molecule 1 (VCAM1), VCAM1 (gene 7412)
Test: BSK_LPS_VCAM1: BioMAP Diversity Plus: LPS Assay for Vascular cell adhesion molecule 1 (VCAM1) Biomarker Activity (AID 2283086)
Conditions: primary human HUVEC with PBMC; actives raise or lower the signal
Calls of active or inactive are those of the source. Rule for the calls: active = hit-call score of the fitted dose curve at least 0.9, where 1 is the maximum; inactive = score below 0.9.

Compound | AC50
CN[C@H]1CC[C@@H](c2ccc(Cl)c(Cl)c2)c2ccc(S(N)(=O)=O)cc21 | 20 µM (active)
CN1CCCC1=O | inactive
O=c1[nH]cc(F)c(=O)[nH]1 | 20.4 µM (active)
CNCc1cc(F)ccc1Oc1ccc(Cl)c(Cl)c1 | inactive
CNC(=O)[C@H]1O[C@@H](n2cnc3c(NCc4cc(Cl)ccc4OCc4cc(C)no4)ncnc32)[C@H](O)[C@@H]1N | inactive
Cc1ccc2ncccc2c1 | inactive
COCCOC[C@H](CC1(C(=O)NC2CCC(C(=O)O)CC2)CCCC1)C(=O)Oc1ccc2c(c1)CCC2 (some centres not stated) | inactive
CCCCCCCCCCCC(=O)OC | inactive
Cc1ccc(N(C)C)cc1 | inactive
CC1=C(/C=C/C(C)=C/C=C/C(C)=C/CO)C(C)(C)CCC1 | 30.5 µM (active)
CCCCCCCCCCCCCO | 34.7 µM (active)
CCCCC(CC)COC(=O)CC(C(=O)OCC(CC)CCCC)S(=O)(=O)O (configuration not stated) | 36.5 µM (active)
O=C(OCCCCCOC(=O)c1ccccc1)c1ccccc1 | inactive
CCCCCCOCCO | inactive
C[C@]12C=CC(=O)C=C1CC[C@@H]1[C@@H]2C(=O)C[C@@]2(C)[C@H]1CC[C@]2(O)C(=O)CO | inactive
COC(=O)c1ccc(O)cc1 | inactive
CC1(C)NC(=O)NC1=O | inactive
Nc1ccccc1N | 11.2 µM (active)
Cc1cc(NC(=O)C(=O)O)cc(C)c1Oc1ccc(O)c2c1CCC2 | inactive
CCCCN(CCCC)CCCC | inactive
Cc1cccc([N+](=O)[O-])c1C | inactive
Cc1cccc(Nc2cc(Cl)nc(SCC(=O)O)n2)c1C | inactive
O=C(O)CCCCC(=O)O | inactive
CCCCCC(=O)O | inactive
Nc1ccc(S(=O)(=O)c2ccc(N)cc2)cc1 | inactive
COCCOCCOC | inactive
Cc1ccc(C(C)C)c(O)c1 | inactive
NC(=O)Cn1c(=O)cc(CCN2CCN(c3nccc4sccc34)CC2)c2ccc(F)cc21 | inactive
C1CCC(SSC2CCCCC2)CC1 | 20 µM (active)
OC[C@@H](O)[C@@H](O)[C@H](O)[C@H](O)CO | inactive
CC(C)(C)c1cc(O)c(C(C)(C)C)cc1O | 8.05 µM (active)
CC1(C)CC(N=C=O)CC(C)(CN=C=O)C1 (configuration not stated) | inactive

Data provenance: PubChem BioAssay (EPA / NIEHS)
